# Measurement notes: log P determination by LC-MS in the acidic range
# Assay type: physicochemical
# Condition parameters: Table 3; HPLC on reversed-phase column (C 18), 55° C., acidic range (pH 2.7 or pH 2.3)
Endpoint name: log P (acid)
// print number alone

# example entries with known answers
Compound string	Reported
O=C(Nc1nn(-c2ncccc2Cl)nc1C(F)(F)F)c1cccnc1	1.89
Cc1nn(-c2ncc(Cl)cc2Cl)nc1NC(=O)c1cccnc1	1.74
O=C(Nc1nn(-c2ccccc2)nc1Br)c1cccnc1	2.09
O=C(Nc1cnn(-c2ncccc2Br)n1)c1cccnc1	1.33
O=C(Nc1cnn(-c2c(F)cccc2F)n1)c1cccnc1	1.67

Input line: Bench note: what log P (acid) did "O=C(Nc1cnn(-c2ncc(C(F)(F)F)cc2Cl)n1)c1cccnc1" show?
Output line: 2.12

Input line: Bench note: what log P (acid) did "Cc1nn(-c2ncccc2Cl)nc1NC(=O)c1cccnc1" show?
Output line: 1.24

---

chromatographic logP for assorted molecules
# Measurement notes: log P determination by LC-MS in the acidic range
# Assay type: physicochemical
# Condition parameters: reversed-phase HPLC column (C18), pH 2.7, Table 3; HPLC on reversed-phase column (C 18), 55° C., acidic range (pH 2.7 or pH 2.3); read-out: log P (acid)
// print number alone

Compound string	chromatographic logP
Cc1nn(-c2ccccn2)nc1NC(=O)c1cccnc1	1.08

Input line: Bench note: what chromatographic logP did "O=C(Nc1cnn(-c2ccc(C(F)(F)F)cn2)n1)c1cccnc1" show?
Output line: 1.91

---

efficacy (kill in %) for assorted compounds
# Test system: Myzus persicae
# Measurement notes: Myzus persicae - sachet test
# Type: in vivo
# Condition parameters: application rate of 30 ppm in nutrient medium; 100% = all animals killed
Give just the number in %; leave the unit off.

# example entries with known answers
Compound string	Uom	Reported
O=C(Nc1cc(Cl)n(Cc2ncccn2)n1)c1cccnc1	%	100
Cc1cc(NC(=O)c2cccnc2)nn1-c1ccc(Cl)cc1	%	100
CNC(=O)Cn1nc(NC(=O)c2cccnc2)cc1C	%	100
O=C(Nc1nnn(Cc2ccc(Cl)nc2)n1)c1cccnc1	%	100
Cc1cc(NC(=O)c2cccnc2)nn1Cn1cncn1	%	100
O=C(Nc1ccn(C(CF)CF)n1)c1cccnc1	%	100
Cc1cc(NC(=O)c2cccnc2)nn1C(=O)N1CCCC1	%	100
Cc1cc(NC(=O)c2cncc(Br)c2)nn1Cc1ccc(F)cc1	%	100

Field: next compound
Input line: Bench note: what efficacy (kill in %) did "Cc1cc(NC(=O)c2cccnc2)nn1Cc1ncc(Cl)cn1" show?
Output line: 100

---

log P (acid) for assorted molecules
# Measurement notes: log P determination by LC-MS in the acidic range
# Type: physicochemical
# Condition parameters: LC-MS in the acidic range
// print number alone

# example entries with known answers
Molecule	Endpoint name	Reported
Cc1cc(NC(=O)c2cccnc2)nn1CC1CC1	log P (acid)	1.31
Cc1cc(NC(=O)c2cccnc2)nn1CC#N	log P (acid)	0.7
Cc1cc(N(C)C(=O)c2cccnc2)nn1CC[S+](C)[O-] (centres unmarked)	log P (acid)	0.16
Cc1cc(NC(=O)c2cccnc2)nn1C(=O)NC1CC1	log P (acid)	1.27

Field: next molecule
Input line: Bench note: what log P (acid) did "Cc1cc(NC(=O)c2cccnc2)nn1-c1ncc(C(F)(F)F)cc1Cl" show?
Output line: 2.2

---

# Measurement notes: log P determination by LC-MS in the acidic range
# Type: physicochemical
# Condition parameters: pH 2.7, amines of the formula (II-1); acidic range pH 2.7 (0.1% formic acid/acetonitrile) or pH 2.3 (0.1% phosphoric acid/acetonitrile); read-out: log P (acid)
# Excerpt: The LC-MS determination in the acidic range is effected at pH 2.7 using 0.1% aqueous formic acid and acetonitrile (contains 0.1% formic acid) as eluents, linear gradient from 10% acetonitrile to 95% acetonitrile. Alternatively, the determination is effected in the acidic range at pH 2.3 using 0.1% aqueous phosphoric acid and acetonitrile as eluents; linear gradient from 10% acetonitrile to 95% acetonitrile.
Endpoint name: chromatographic logP

Compound string	chromatographic logP
Nc1ccn(Cc2ncc(C(F)(F)F)cc2Cl)n1	1.36

Input line: Bench note: what chromatographic logP did "Cc1cc(N)nn1Cc1ncccn1" show?
Output line: < -0.23

Input line: Bench note: what chromatographic logP did "CCSCn1nc(N)cc1C" show?
Output line: 0.63

Input line: Bench note: what chromatographic logP did "Nc1cc(Br)n(Cc2ncccn2)n1" show?
Output line: 0.56

---

# Measurement notes: log P determination by LC-MS in the acidic range
# Type: physicochemical
# Condition parameters: LC-MS in the acidic range
Class boundaries, taken from values of log P (acid), are as follows: lo (below 1), mid (1 to below 2), hi (2 or more)

Examples from the recorded data:
Molecule	Assigned label
Cc1cc(NC(=O)c2cccnc2)nn1CC[S+](C)[O-] (stereo not drawn)	lo
Cc1cc(NC(=O)c2cccnc2)nn1CC(F)(F)c1ccc(F)cn1	mid
Cc1cc(NC(=O)c2cccnc2)nn1Cc1cc(C(=O)N(C)C)no1	mid
Cc1cc(NC(=O)c2cccnc2)nn1Cc1nccn1C	lo
Cc1cc(NC(=O)c2ccc(Cl)nc2)nn1Cc1ccc(F)cc1	hi

Input line: Band of "Cc1cc(NC(=O)c2cccnc2)nn1-c1ccc(C(F)(F)F)cn1" ?
Output line: hi

Input line: Band of "Cc1ccc(C(=O)Nc2cc(C)n(Cc3ccc(F)cc3)n2)cn1" ?
Output line: mid

---

# Measurement notes: log P determination by LC-MS in the acidic range
# Assay type: physicochemical
# Condition parameters: LC-MS in the acidic range
log P (acid) for assorted molecules
// print number alone

# example entries with known answers
Compound string	log P (acid)
Cc1cc(NC(=O)c2cccnc2)nn1C(=O)NCCOc1c(F)cccc1F	2.21
Cc1cc(NC(=O)c2ccc(Cl)nc2)nn1Cc1ccccc1F	2.59
Cc1cc(NC(=O)c2cnc(Cl)c(Cl)c2)nn1Cc1ccc(F)cc1	3.23
Cc1nnc(Cn2nc(NC(=O)c3cccnc3)cc2C)s1	0.83
Cc1cc(NC(=O)c2cccnc2)nn1Cn1nccc1C(F)(F)F	1.72

Input line: Bench note: what log P (acid) did "Cc1cc(NC(=O)c2cncc(F)c2)nn1C(C)(C)C" show?
Output line: 2.13

Input line: Bench note: what log P (acid) did "Cc1ccc(C(=O)Nc2cc(C)n(Cc3ccccc3)n2)cn1" show?
Output line: 1.71

Input line: Bench note: what log P (acid) did "Cc1cc(N(C)C(=O)c2cccnc2)nn1CC1CC1" show?
Output line: 1.27

Input line: Bench note: what log P (acid) did "N#Cc1ccccc1-n1ccc(NC(=O)c2cccnc2)n1" show?
Output line: 1.42

Input line: Bench note: what log P (acid) did "CCn1nc(NC(=O)c2cccnc2)cc1C" show?
Output line: 0.93

Input line: Bench note: what log P (acid) did "Cc1cc(N(Cc2nc(-c3ccccc3)no2)C(=O)c2cccnc2)nn1Cc1nc(-c2ccccc2)no1" show?
Output line: 3.26

Input line: Bench note: what log P (acid) did "Cc1cc(NC(=O)c2cccnc2)nn1C(=O)NC(C)C" show?
Output line: 1.46

Input line: Bench note: what log P (acid) did "COc1ccc(C(=O)Nc2cc(C)n(Cc3cccc(F)c3)n2)cn1" show?
Output line: 2.51

Input line: Bench note: what log P (acid) did "Cc1cc(NC(=O)c2cccnc2)nn1Cc1cccnc1" show?
Output line: 0.12

Input line: Bench note: what log P (acid) did "O=C(Nc1ccn(C(CF)CF)n1)c1cccnc1" show?
Output line: 0.84

Input line: Bench note: what log P (acid) did "CSCCCNC(=O)n1nc(NC(=O)c2cccnc2)cc1C" show?
Output line: 1.7

Input line: Bench note: what log P (acid) did "Cc1cc(NC(=O)c2cccnc2)nn1Cc1ccccc1F" show?
Output line: 1.82

Input line: Bench note: what log P (acid) did "Cc1cc(NC(=O)c2cccnc2)nn1C(=O)NCc1ccccc1" show?
Output line: 1.97

Input line: Bench note: what log P (acid) did "Cc1cc(NC(=O)c2cccnc2)nn1Cn1c(=O)n(C)c(=O)n1C" show?
Output line: 0.82

---

log P (acid) for assorted compounds
# Measurement notes: log P determination by LC-MS in the acidic range
# Assay type: physicochemical
# Condition parameters: Table 4; HPLC on reversed-phase column (C 18), 55° C., acidic range (pH 2.7 or pH 2.3)
// print number alone

# example entries with known answers
Compound	log P (acid)
COc1cc(OC)nc(-n2nnc(NC(=O)c3cccnc3)n2)n1 [Compound I-4-4]	1.35
C=CCn1nnc(NC(=O)c2cccnc2)n1 [Compound I-4-8]	0.60
CCCn1nnc(NC(=O)c2cccnc2)n1 [Compound I-4-9]	0.76

Input line: Bench note: what log P (acid) did O=C(Nc1nnn(Cc2ccc(Cl)nc2)n1)c1cccnc1 [Compound I-4-3] show?
Output line: 1.05

Input line: Bench note: what log P (acid) did O=C(Nc1nnn(Cc2ccccc2)n1)c1cccnc1 [Compound I-4-10] show?
Output line: 1.38

Input line: Bench note: what log P (acid) did CCOC(=O)Cn1nnc(NC(=O)c2cccnc2)n1 [Compound I-4-5] show?
Output line: 0.71

Input line: Bench note: what log P (acid) did O=C(Cn1nnc(NC(=O)c2cccnc2)n1)NCc1cccc2ccccc12 [Compound I-4-7] show?
Output line: 1.71

Input line: Bench note: what log P (acid) did CCCCNC(=O)Cn1nnc(NC(=O)c2cccnc2)n1 [Compound I-4-11] show?
Output line: 0.97
